Target: T1, human LAG-3 on cells (HEK293-hLAG-3 stable cell line) (human, UniProt P18627 23-525)
T1 sequence: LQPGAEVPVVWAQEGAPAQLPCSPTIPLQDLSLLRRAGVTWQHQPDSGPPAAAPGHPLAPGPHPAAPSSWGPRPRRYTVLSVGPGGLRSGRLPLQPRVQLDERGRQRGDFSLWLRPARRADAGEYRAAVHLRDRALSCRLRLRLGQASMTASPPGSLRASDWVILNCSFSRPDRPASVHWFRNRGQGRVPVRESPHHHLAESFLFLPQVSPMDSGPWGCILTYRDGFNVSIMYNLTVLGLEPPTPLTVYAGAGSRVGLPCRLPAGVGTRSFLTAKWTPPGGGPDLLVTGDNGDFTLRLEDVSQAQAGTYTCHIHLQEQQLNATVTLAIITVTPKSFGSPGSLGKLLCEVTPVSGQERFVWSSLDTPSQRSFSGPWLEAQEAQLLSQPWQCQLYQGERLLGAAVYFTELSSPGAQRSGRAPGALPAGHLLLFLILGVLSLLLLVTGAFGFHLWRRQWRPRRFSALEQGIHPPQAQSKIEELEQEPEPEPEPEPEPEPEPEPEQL
Test: cell-based or functional assay
Task for the reader: assign each of the following binders its reported IL-2 production, antigen-specific T lymphocyte stimulation test, 10 ug/ml, N = 2.
Write down the value, and be sure its unit follows.

Challenge: Recorded IL-2 production, antigen-specific T lymphocyte stimulation test, 10 ug/ml, N = 2 of 556F6B8 mouse-human chimeric antibody (antibody, V domains shown, also called mAb123-556F6B8; 556F8B8) VH: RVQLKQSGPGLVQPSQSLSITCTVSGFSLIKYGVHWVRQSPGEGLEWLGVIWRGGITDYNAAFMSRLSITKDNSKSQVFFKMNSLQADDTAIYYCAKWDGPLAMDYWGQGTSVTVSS VL: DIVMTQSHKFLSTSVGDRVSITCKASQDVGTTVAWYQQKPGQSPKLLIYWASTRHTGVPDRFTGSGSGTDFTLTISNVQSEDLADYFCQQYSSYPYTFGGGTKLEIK , please.
Response given: 722 pg/mL

Challenge: And for 105F1E10 mouse-human chimeric antibody (antibody, V domains shown, also called mAb009-105F1E10) VH: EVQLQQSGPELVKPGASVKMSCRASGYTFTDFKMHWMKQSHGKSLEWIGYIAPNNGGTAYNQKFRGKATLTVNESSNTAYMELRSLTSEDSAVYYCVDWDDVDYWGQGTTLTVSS VL: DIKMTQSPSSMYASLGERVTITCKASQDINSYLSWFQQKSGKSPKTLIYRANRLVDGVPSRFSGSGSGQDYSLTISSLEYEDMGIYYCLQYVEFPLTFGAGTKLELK ?
Response given: 627 pg/mL

Challenge: And for 409D4E10 mouse-human chimeric antibody (antibody, V domains shown, also called mAb112-409D4E10) VH: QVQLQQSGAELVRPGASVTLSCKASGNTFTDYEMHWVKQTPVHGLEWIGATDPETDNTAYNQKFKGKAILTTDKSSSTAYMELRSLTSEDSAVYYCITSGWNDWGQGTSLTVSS VL: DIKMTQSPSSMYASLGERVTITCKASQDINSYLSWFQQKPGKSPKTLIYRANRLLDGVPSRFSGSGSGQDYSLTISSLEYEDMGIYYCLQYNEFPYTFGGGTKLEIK ?
Response given: 801 pg/mL

Challenge: And for 409B11E12 mouse-human chimeric antibody (antibody, V domains shown, also called mAb104-409B11E12) VH: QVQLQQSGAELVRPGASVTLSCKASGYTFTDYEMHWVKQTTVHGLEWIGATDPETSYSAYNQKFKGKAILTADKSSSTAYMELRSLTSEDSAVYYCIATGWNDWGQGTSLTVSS VL: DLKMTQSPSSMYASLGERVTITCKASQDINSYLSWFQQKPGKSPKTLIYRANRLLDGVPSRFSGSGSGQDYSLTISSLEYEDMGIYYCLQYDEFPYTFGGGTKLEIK ?
Response given: 795 pg/mL
